- MEASURED_TARGET: recombinant human Myt1 (Homo sapiens, UniProt Q99640)
- Construct: full length PKMYT1 recombinant human protein expressed in insect cells
- Sequence (Q99640 whole entry): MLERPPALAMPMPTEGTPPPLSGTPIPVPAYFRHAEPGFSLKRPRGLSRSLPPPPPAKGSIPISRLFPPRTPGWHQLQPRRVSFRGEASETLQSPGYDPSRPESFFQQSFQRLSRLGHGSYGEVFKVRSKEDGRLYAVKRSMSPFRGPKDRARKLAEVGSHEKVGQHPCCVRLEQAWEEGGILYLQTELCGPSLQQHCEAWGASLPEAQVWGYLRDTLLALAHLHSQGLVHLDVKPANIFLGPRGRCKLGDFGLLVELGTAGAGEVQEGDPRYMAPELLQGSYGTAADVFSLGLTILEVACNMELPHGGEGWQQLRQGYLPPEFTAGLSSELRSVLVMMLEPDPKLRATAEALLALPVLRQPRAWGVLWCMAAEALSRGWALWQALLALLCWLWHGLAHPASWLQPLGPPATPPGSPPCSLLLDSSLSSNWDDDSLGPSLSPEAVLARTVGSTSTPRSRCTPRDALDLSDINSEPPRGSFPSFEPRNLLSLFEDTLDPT
- TEST_NAME: Myt1 enzymatic assay (ADP-Glo kinase assay, IC50 and % max inhibition)
- Type: biochemical
- STUDY_CONDITIONS: recombinant human Myt1 18 nM, ATP 10 μM
pIC50: −log10 of the molar value.
Here, each record is paired with measured pIC50 data.
MEASUREMENT_KIND: pIC50

- MOLECULE_SMILES: "C=Cc1cnc2c(C(N)=O)c(N)n(-c3c(C)ccc(O)c3C)c2n1"
  REPORTED: 7.37
- MOLECULE_SMILES: "Cc1ccc(O)cc1-n1c(N)c(C(N)=O)c2ncc(CCCN3CCOCC3)nc21"
  REPORTED: 6.17
- MOLECULE_SMILES: "Cc1ccc(O)cc1-n1c(N)c(C(N)=O)c2nc(C3=CCCC3)ccc21"
  REPORTED: 5.91
- MOLECULE_SMILES: "COC(C)(C)C#Cc1cnc2c(C(N)=O)c(N)n(-c3c(C)ccc(O)c3C)c2n1"
  REPORTED: 8.00
- MOLECULE_SMILES: "Cc1ccc(O)cc1-n1c(N)c(C(N)=O)c2nc(CCCC(C)(C)O)ccc21"
  REPORTED: 6.28

###

- MEASURED_TARGET: recombinant human Myt1 (Homo sapiens)
- Construct: full length PKMYT1 recombinant human protein expressed in insect cells
- TEST_NAME: Myt1 enzymatic assay (ADP-Glo kinase assay, IC50 and % max inhibition)
- STUDY_CONDITIONS: recombinant human Myt1 18 nM, ATP 10 μM
MEASUREMENT_KIND: IC50 (nM)

- MOLECULE_SMILES: "Cc1ccc(O)c(C)c1-n1c(N)c(C(N)=O)c2nc(N3CCCCC3)cnc21"
  MEASUREMENT_KIND: "IC50"
  MODIFIER: "<"
  REPORTED: 10
- MOLECULE_SMILES: "Cc1ccc(O)c(C)c1-n1c(N)c(C(N)=O)c2nc(-c3ccncn3)cnc21"
  MEASUREMENT_KIND: "IC50"
  MODIFIER: "<"
  REPORTED: 10
- MOLECULE_SMILES: "Cc1ccc(O)cc1-n1c(N)c(C(N)=O)c2nc(-c3cccc(C#N)c3)ccc21"
  MEASUREMENT_KIND: "IC50"
  MODIFIER: "="
  REPORTED: 480
- MOLECULE_SMILES: "Cc1ccc(O)c(C)c1-n1c(N)c(C(N)=O)c2ncc(C#CCN(C)C)nc21"
  MEASUREMENT_KIND: "IC50"
  MODIFIER: "="
  REPORTED: 12
- MOLECULE_SMILES: "CCNC(=O)c1cnc2c(n1)c(C(N)=O)c(N)n2-c1c(C)ccc(O)c1C"
  MEASUREMENT_KIND: "IC50"
  MODIFIER: "="
  REPORTED: 16
- MOLECULE_SMILES: "Cc1ccc(O)c(C)c1-n1c(N)c(C(N)=O)c2cc(C(C)C)cnc21"
  MEASUREMENT_KIND: "IC50"
  MODIFIER: "<"
  REPORTED: 10
- MOLECULE_SMILES: "Cc1ccc(O)c(C)c1-n1c(N)c(C(N)=O)c2nc(C(F)F)cnc21"
  MEASUREMENT_KIND: "IC50"
  MODIFIER: "="
  REPORTED: 16
- MOLECULE_SMILES: "Cc1ccc(O)c(C)c1-n1c(N)c(C(N)=O)c2ncc(C#CCC3CCOCC3)nc21"
  MEASUREMENT_KIND: "IC50"
  MODIFIER: "<"
  REPORTED: 10
- MOLECULE_SMILES: "Cc1ccc(O)cc1-n1c(N)c(C(N)=O)c2ncc(OCCN3CCOCC3)nc21"
  MEASUREMENT_KIND: "IC50"
  MODIFIER: "="
  REPORTED: 6350
- MOLECULE_SMILES: "Cc1ccc(O)c(C)c1-n1c(N)c(C(N)=O)c2nc(-c3cnccn3)cnc21"
  MEASUREMENT_KIND: "IC50"
  MODIFIER: "<"
  REPORTED: 10
- MOLECULE_SMILES: "Cc1ccc(O)c(C)c1-n1c(N)c(C(N)=O)c2nc(-c3ccnc(C(F)(F)F)c3)cnc21"
  MEASUREMENT_KIND: "IC50"
  MODIFIER: "<"
  REPORTED: 10
- MOLECULE_SMILES: "Cc1ccc(O)cc1-n1c(N)c(C(N)=O)c2ncc(C#Cc3ccccn3)nc21"
  MEASUREMENT_KIND: "IC50"
  MODIFIER: "="
  REPORTED: 953
- MOLECULE_SMILES: "Cc1ccc(O)c(C)c1-n1c(N)c(C(N)=O)c2cc(Br)c(C)nc21"
  MEASUREMENT_KIND: "IC50"
  MODIFIER: "<"
  REPORTED: 10
- MOLECULE_SMILES: "Cc1ccc(O)cc1-n1c(N)c(C(N)=O)c2nc(-c3ccc(C(=O)O)cc3)ccc21"
  MEASUREMENT_KIND: "IC50"
  MODIFIER: "="
  REPORTED: 187
- MOLECULE_SMILES: "Cc1ccc(O)c(C)c1-n1c(N)c(C(N)=O)c2nc(OC3CC3)cnc21"
  MEASUREMENT_KIND: "IC50"
  MODIFIER: "="
  REPORTED: 27
- MOLECULE_SMILES: "Cc1ccc(O)c(C)c1-n1c(N)c(C(N)=O)c2nc(C3CC3)c(C)nc21"
  MEASUREMENT_KIND: "IC50"
  MODIFIER: "<"
  REPORTED: 10
- MOLECULE_SMILES: "Cc1ccc(O)c(C)c1-n1c(N)c(C(N)=O)c2nc(N3CCS(=O)(=O)CC3)cnc21"
  MEASUREMENT_KIND: "IC50"
  MODIFIER: "="
  REPORTED: 11
- MOLECULE_SMILES: "Cc1ccc(O)c(C)c1-n1c(N)c(C(N)=O)c2ncc(C#C[C@H](C)O)nc21"
  MEASUREMENT_KIND: "IC50"
  MODIFIER: "="
  REPORTED: 52
- MOLECULE_SMILES: "Cc1cnc2c(n1)c(C(N)=O)c(N)n2-c1c(C)ccc(O)c1C"
  MEASUREMENT_KIND: "IC50"
  MODIFIER: "="
  REPORTED: 11
- MOLECULE_SMILES: "CC(=O)N1CCN(c2cnc3c(n2)c(C(N)=O)c(N)n3-c2c(C)ccc(O)c2C)CC1"
  MEASUREMENT_KIND: "IC50"
  MODIFIER: "<"
  REPORTED: 10
- MOLECULE_SMILES: "C=Cc1cnc2c(n1)c(C(N)=O)c(N)n2-c1c(C)ccc(O)c1C"
  MEASUREMENT_KIND: "IC50"
  MODIFIER: "<"
  REPORTED: 10
- MOLECULE_SMILES: "Cc1ccc(O)c(C)c1-n1c(N)c(C(N)=O)c2cc(C(F)(F)F)cnc21"
  MEASUREMENT_KIND: "IC50"
  MODIFIER: "="
  REPORTED: 81
- MOLECULE_SMILES: "Cc1ccc(O)c(C)c1-n1c(N)c(C(N)=O)c2nc(-c3c[nH]cn3)cnc21"
  MEASUREMENT_KIND: "IC50"
  MODIFIER: "<"
  REPORTED: 10
- MOLECULE_SMILES: "Cc1ccc(O)cc1-n1c(N)c(C(N)=O)c2nc(C#CCC(C)(C)O)ccc21"
  MEASUREMENT_KIND: "IC50"
  MODIFIER: "="
  REPORTED: 9060
- MOLECULE_SMILES: "Cc1ccc(O)c(C)c1-n1c(N)c(C(N)=O)c2ncc(C#C[C@@H]3OCC[C@@H]3Cl)nc21"
  MEASUREMENT_KIND: "IC50"
  MODIFIER: "="
  REPORTED: 10
- MOLECULE_SMILES: "Cc1ccc(O)c(C)c1-n1c(N)c(C(N)=O)c2nc(-c3cc(C(F)(F)F)ccn3)cnc21"
  MEASUREMENT_KIND: "IC50"
  MODIFIER: "="
  REPORTED: 14

###

- MEASURED_TARGET: recombinant human Myt1 (Homo sapiens, UniProt Q99640)
- Construct: full length PKMYT1 recombinant human protein expressed in insect cells
- TEST_NAME: Myt1 enzymatic assay (ADP-Glo kinase assay, IC50 and % max inhibition)
- Type: biochemical
- STUDY_CONDITIONS: recombinant human Myt1 18 nM, ATP 10 μM
Param label: returns Met when IC50 < 0.06 µM, returns Not met otherwise, including exact equality.

- MOLECULE_SMILES: "Cc1ccc(O)c(C)c1-n1c(N)c(C(N)=O)c2nc(-c3ccn(C)n3)cnc21"
  LABEL_CLASS: "Met"
- MOLECULE_SMILES: "Cc1ccc(O)c(C)c1-n1c(N)c(C(N)=O)c2nc(-c3cccc(OC4CCOCC4)n3)cnc21"
  LABEL_CLASS: "Not met"
- MOLECULE_SMILES: "CNC(=O)C1CCN(c2cnc3c(n2)c(C(N)=O)c(N)n3-c2c(C)ccc(O)c2C)CC1"
  LABEL_CLASS: "Met"
- MOLECULE_SMILES: "CCCCc1cnc2c(n1)c(C(N)=O)c(N)n2-c1c(C)ccc(O)c1C"
  LABEL_CLASS: "Met"
- MOLECULE_SMILES: "Cc1ccc(O)c(C)c1-n1c(N)c(C(N)=O)c2cccnc21"
  LABEL_CLASS: "Met"
- MOLECULE_SMILES: "Cc1ccc(O)c(C)c1-n1c(N)c(C(N)=O)c2ncc(C#CC3(O)CCC(F)(F)CC3)nc21"
  LABEL_CLASS: "Met"
- MOLECULE_SMILES: "Cc1ccc(O)c(C)c1-n1c(N)c(C(N)=O)c2nccnc21"
  LABEL_CLASS: "Met"
- MOLECULE_SMILES: "Cc1ccc(O)cc1-n1c(N)c(C(N)=O)c2nc(C#CCN3CCOCC3)ccc21"
  LABEL_CLASS: "Not met"
